Here the recorded pKd is given for each entry.
biological target: T1, B7-H4 IgV-huIgG1 (human); experiment: SPR, antibody captured by anti-human Fab, antigen in flow
T1 construct: also called N-terminal domain of human B7-H4
T1 sequence (chain, as listed by the source limits assumed): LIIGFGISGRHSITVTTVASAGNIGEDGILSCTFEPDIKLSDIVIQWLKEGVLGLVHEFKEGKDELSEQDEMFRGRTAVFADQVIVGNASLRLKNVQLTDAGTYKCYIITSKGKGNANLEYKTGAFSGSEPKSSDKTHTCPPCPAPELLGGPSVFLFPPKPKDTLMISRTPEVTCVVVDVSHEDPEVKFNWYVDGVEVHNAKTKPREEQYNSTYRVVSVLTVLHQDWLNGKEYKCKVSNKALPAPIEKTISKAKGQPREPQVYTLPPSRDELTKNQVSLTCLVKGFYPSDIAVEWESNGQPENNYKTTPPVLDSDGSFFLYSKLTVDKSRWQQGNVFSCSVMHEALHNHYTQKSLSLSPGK
Recall that pKd is obtained by taking minus log10 of the concentration measured in molar.

# count of solved cases: 3
- Binder: "B7-H4 antibody 15461 (antibody, human IgG1, kappa, V domains shown, human IgG1/kappa) VH: QLQLQESGPGLVKPSETLSLTCTVSGGSISSSSYYWGWIRQPPGKGLEWIGNIYYSGSTYYNPSLKSRVTISVDTSKNQFSLKLSSVTAADTAVYYCAREGSYPNWFDPWGQGTLVTVSS VL: EIVMTQSPATLSVSPGERATLSCRASQSVSSNLAWYQQKPGQAPRLLIYGASTRATGIPARFSGSGSGTEFTLTISSLQSEDFAVYYCQQYHSFPFTFGGGTKVEIKR"
  pKd: 7.52
- Binder: "B7-H4 antibody 15465 (antibody, human IgG1, kappa, V domains shown, human IgG1/kappa) VH: QVQLQESGPGLVKPSQTLSLTCTVSGGSISSGGYYWSWIRQHPGKGLEWIGNIYYSGSTYYNPSLKSRVTISVDTSKNQFSLKLSSVTAADTAVYYCARESSTISADFDLWGRGTLVTVSS VL: DIQMTQSPSSVSASVGDRVTITCRASQGISRWLAWYQQKPGKAPKLLIYAASSLQSGVPSRFSGSGSGTDFTLTISSLQPEDFATYYCQQAHTFPYTFGGGTKVEIKR"
  pKd: 7.76
- Binder: "B7-H4 antibody 15489 (antibody, human IgG1, kappa, V domains shown, human IgG1/kappa) VH: QVQLQESGPGLVKPSETLSLTCTVSGGSISSYYWSWIRQPPGKGLEWIGYIYSSGSTNYNPSLKSRVTISVDTSKNQFSLKLSSVTAADTAVYYCARGSGQYAAPDYGMDVWGQGTTVTVSS VL: DIQMTQSPSTLSASVGDRVTITCRASQSISSWLAWYQQKPGKAPKLLIYKASSLESGVPSRFSGSGSGTEFTLTISSLQPDDFATYYCQQDNSFPFTFGGGTKVEIKR"
  pKd: 7.63

Consider the record given below.
Reported pKd for B7-H4 antibody 20502 (antibody, V domains shown, human IgG1/kappa) VH: QLQLQESGPGLVKPSETLSLTCTVSGGSIKSGSYYWGWIRQPPGKGLEWIGNIYYSGSTYYNPSLRSRVTISVDTSKNQFSLKLSSVTAADTAVYYCAREGSYPNQFDPWGQGTLVTVSS VL: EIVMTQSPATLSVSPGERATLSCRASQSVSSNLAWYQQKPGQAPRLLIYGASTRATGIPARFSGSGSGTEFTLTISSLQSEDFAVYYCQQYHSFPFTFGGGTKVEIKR was 8.69
